test.details: Plasma pharmacokinetics, Arm III (i.v. infusion), phase 1 trial
Type: in vivo, human
reported.conditions: human, plasma, iv, 32 mg, Arm III i.v. infusion 32 mg, day 1, N=2, mean (individual); read-out: t1/2 (harmonic mean) (converted)
experimental.endpoint: half-life (h)

| compound | unit.of.measurement | value |
| --- | --- | --- |
| Nc1ncc(-c2cnn(CCO)c2)c2scc(-c3ccc(NC(=O)Nc4cccc(F)c4)cc3)c12 [ilorasertib, Ilorasertib] | h | 9.3 |

====

test.details: Plasma pharmacokinetics, Arm II (oral BID), phase 1 trial
Format: in vivo, human
reported.conditions: human, plasma, po, 40 mg, Arm II PO BID 40 mg, day 1, N=2, mean (individual); read-out: t1/2 (harmonic mean) (converted)
experimental.endpoint: half-life (h)

| molecule | experimental.endpoint | value |
| --- | --- | --- |
| Nc1ncc(-c2cnn(CCO)c2)c2scc(-c3ccc(NC(=O)Nc4cccc(F)c4)cc3)c12 [ilorasertib, Ilorasertib] | half-life | 11 |
